Reference source: patent US20250009745A1

ASSAYED_SYSTEM: CDK2 (Homo sapiens)
Construct: purchased Carna Company
PROTOCOL: CDK enzymology experiment in vitro, capillary mobility shift assay (MSA)
Format: biochemical
TEST_CONTEXT: read-out: CDK2 (nM) inhibitory IC50
MEASURED_QUANTITY: IC50

Example entries begin here.
COMPOUND | MEASURED_QUANTITY | RESULT
Cn1cc(S(=O)(=O)N2CCC(Nc3ncc(C#N)c(NC4CC(F)(F)C4)n3)CC2)cn1 [Compound 78] | IC50 | 2.5 to 10 nM
Cn1cc(S(=O)(=O)N2CCC(Nc3ncc(C(F)F)c(O[C@H]4CCOC4)n3)CC2)cn1 [Compound 126] | IC50 | 10 to 50 nM

Working through the 2 compounds below one at a time, give IC50 for each.
1. CN(C)CCn1cc(S(=O)(=O)N2CCC(Nc3ncc(C(F)(F)F)c(O[C@H]4CCOC4)n3)CC2)cn1 [Compound 157]
2. COc1cc(S(=O)(=O)N2CCC(Nc3ncc(C(F)(F)F)c(O[C@H]4CCOC4)n3)CC2)ccc1C1=CCNCC1 [Compound 194]

["< 0.5 nM", "0.5 to 2.5 nM"]

###

ASSAYED_SYSTEM: CDK4 (Homo sapiens)
Construct: purchased Carna Company
PROTOCOL: CDK enzymology experiment in vitro, capillary mobility shift assay (MSA)
Type: biochemical
TEST_CONTEXT: read-out: CDK4 (nM) inhibitory IC50
MEASURED_QUANTITY: IC50

COMPOUND | ASSAYED_SYSTEM | MEASURED_QUANTITY | RESULT
O=S(=O)(c1ccc(C2CCNC2)cc1)N1CCC(Nc2ncc(C(F)(F)F)c(O[C@H]3CCOC3)n2)CC1 (stereo partly shown) [Compound 145] | CDK4 (Homo sapiens) | IC50 | 0.5 to 2.5 nM
C[C@@H]1CN(c2ccc(S(=O)(=O)N3CCC(Nc4ncc(C(F)(F)F)c(O[C@H]5CCOC5)n4)CC3)cc2)C[C@H](C)N1 [Example 169] | CDK4 (Homo sapiens) | IC50 | 0.5 to 2.5 nM
O=S(=O)(c1ccc(C2=CCNCC2)cc1)N1CCC(Nc2ncc(C(F)(F)F)c(N[C@@H]3CCC[C@H]3O)n2)CC1 [Compound 102] | CDK4 (Homo sapiens) | IC50 | 2.5 to 10 nM
Cn1cnc(S(=O)(=O)N2CCC(Nc3ncc(C#N)c(NC4CCCC4)n3)CC2)c1 [Compound 34] | CDK4 (Homo sapiens) | IC50 | 2.5 to 10 nM
O=S(=O)(c1ccc(Br)cc1)N1CCC(Nc2ncc(C(F)(F)F)c(O[C@H]3CCOC3)n2)CC1 [Example 99] | CDK4 (Homo sapiens) | IC50 | 2.5 to 10 nM

Working through the 2 compounds below one at a time, give IC50 for each.
1. CC(C)S(=O)(=O)N1CCC(Nc2ncc(C#N)c(NC3CCCC3)n2)CC1 [Compound 29]
2. Cn1cc(S(=O)(=O)N2CC[C@H](Nc3ncc(C(F)(F)F)c(O[C@H]4CCOC4)n3)[C@H](F)C2)cn1 [Compound 127]

10 to 50 nM
10 to 50 nM

###

What IC50 was measured for each of the following?
ASSAYED_SYSTEM: CDK4 (Homo sapiens, UniProt P11802)
Construct: purchased Carna Company
Sequence (P11802 whole entry): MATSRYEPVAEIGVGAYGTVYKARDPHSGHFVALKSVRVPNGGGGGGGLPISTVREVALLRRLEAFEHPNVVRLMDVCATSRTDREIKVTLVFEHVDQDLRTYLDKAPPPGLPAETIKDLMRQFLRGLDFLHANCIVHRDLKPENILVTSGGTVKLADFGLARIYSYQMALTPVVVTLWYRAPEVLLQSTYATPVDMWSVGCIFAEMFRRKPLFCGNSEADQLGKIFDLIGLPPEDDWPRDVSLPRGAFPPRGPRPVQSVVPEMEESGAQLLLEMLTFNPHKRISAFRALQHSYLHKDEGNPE
Sequence (P30281 whole entry partner): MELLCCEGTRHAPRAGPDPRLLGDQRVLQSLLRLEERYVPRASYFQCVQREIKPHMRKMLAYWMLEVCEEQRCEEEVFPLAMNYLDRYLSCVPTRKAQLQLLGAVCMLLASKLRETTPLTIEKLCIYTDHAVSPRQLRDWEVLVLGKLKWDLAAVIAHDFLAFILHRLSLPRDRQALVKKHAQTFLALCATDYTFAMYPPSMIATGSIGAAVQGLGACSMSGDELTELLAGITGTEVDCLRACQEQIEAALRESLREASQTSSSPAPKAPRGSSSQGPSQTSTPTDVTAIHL
PROTOCOL: CDK enzymology experiment in vitro, capillary mobility shift assay (MSA)
Assay type: biochemical
TEST_CONTEXT: read-out: CDK4 (nM) inhibitory IC50

Example entries begin here.
COMPOUND | MEASURED_QUANTITY | RESULT
Cn1cc(S(=O)(=O)N2CCC(Nc3ncc(C#N)c(N[C@H]4CCC[C@]4(C)O)n3)CC2)cn1 (single isomer, unassigned) | IC50 | 10 to 50 nM
O=S(=O)(c1ccc(C2CCCNC2)c(F)c1)N1CCC(Nc2ncc(C(F)(F)F)c(O[C@H]3CCOC3)n2)CC1 (stereo partly shown) | IC50 | 0.5 to 2.5 nM
Cn1cc(S(=O)(=O)N2CCC(Nc3ncc(C#N)c(O[C@@H]4CC[C@@H](O)C4)n3)CC2)cn1 (single isomer, unassigned) | IC50 | 10 to 50 nM
O=S(=O)(c1ccc([C@@H]2CCCNC2)cc1)N1CCC(Nc2ncc(C(F)(F)F)c(O[C@H]3CCOC3)n2)CC1 (single isomer, unassigned) | IC50 | 0.5 to 2.5 nM
Cn1cc(S(=O)(=O)N2CCC(Nc3ncc(C#N)c(O[C@H]4CCC[C@@H]4O)n3)CC2)cn1 (single isomer, unassigned) | IC50 | 10 to 50 nM

Working through the 2 compounds below one at a time, give IC50 for each.
1. O=S(=O)(c1ccc(C2CCNCC2)cc1)N1CCC(Nc2ncc(C(F)(F)F)c(NC3CCCC3(F)F)n2)CC1 (stereo not shown)
2. O=S(=O)(c1ccc(C2=CCNCC2)cn1)N1CCC(Nc2ncc(C(F)(F)F)c(O[C@H]3CCOC3)n2)CC1

0.5 to 2.5 nM
0.5 to 2.5 nM

Working through the 5 compounds below one at a time, give IC50 for each.
1. N#Cc1cnc(NC2CCN(S(=O)(=O)c3ccc(N4CCOCC4)cc3)CC2)nc1NC1CCCC1
2. C[C@@H]1CN(c2ccc(S(=O)(=O)N3CCC(Nc4ncc(C(F)(F)F)c(O[C@@H]5CCOC5)n4)CC3)cc2)C[C@H](C)N1
3. N#Cc1cnc(NC2CCN(S(=O)(=O)c3ccc(C4=CCNCC4)cc3)CC2)nc1N[C@H]1CCOC1
4. Cc1cc(S(=O)(=O)N2CCC(Nc3ncc(C(F)(F)F)c(O[C@H]4CCOC4)n3)CC2)ccc1N1CCNCC1
5. C[C@@H]1CN(c2ccc(S(=O)(=O)N3CCC(Nc4ncc(C(F)(F)F)c(O[C@H]5CCOC5)n4)CC3)cn2)CCN1

1. 2.5 to 10 nM
2. 10 to 50 nM
3. 2.5 to 10 nM
4. 0.5 to 2.5 nM
5. 0.5 to 2.5 nM

Tested system CDK4 (Homo sapiens, UniProt P11802); IC50 recorded for `CN(C)CCn1cc(S(=O)(=O)N2CCC(Nc3ncc(C(F)(F)F)c(O[C@H]4CCOC4)n3)CC2)cn1` was 2.5 to 10 nM
